Sequence of the target: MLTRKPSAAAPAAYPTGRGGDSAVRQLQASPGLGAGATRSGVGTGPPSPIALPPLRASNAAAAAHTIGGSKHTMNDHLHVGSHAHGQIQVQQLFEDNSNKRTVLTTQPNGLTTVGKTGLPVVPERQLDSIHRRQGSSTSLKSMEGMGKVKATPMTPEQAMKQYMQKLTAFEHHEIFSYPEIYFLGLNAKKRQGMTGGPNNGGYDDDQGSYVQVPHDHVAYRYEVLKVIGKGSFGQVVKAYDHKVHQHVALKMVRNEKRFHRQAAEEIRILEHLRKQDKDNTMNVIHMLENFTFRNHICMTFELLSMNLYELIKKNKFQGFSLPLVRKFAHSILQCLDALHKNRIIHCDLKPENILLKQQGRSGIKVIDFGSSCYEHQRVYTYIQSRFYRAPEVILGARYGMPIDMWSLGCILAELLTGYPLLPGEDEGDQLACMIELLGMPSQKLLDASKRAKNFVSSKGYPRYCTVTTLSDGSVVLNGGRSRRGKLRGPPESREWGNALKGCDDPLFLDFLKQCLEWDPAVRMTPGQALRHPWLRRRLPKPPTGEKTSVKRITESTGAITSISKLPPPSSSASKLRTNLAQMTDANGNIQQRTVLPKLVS
READOUT LABEL: pIC50
Answers are plain numbers, as −log10 of the molar value.

Quick one: give measured pIC50 for COc1ccc2nc3ccc(Cl)cc3c(SCCCN)c2c1
5.00
